Listed here: items and their measured log10(IC50).
Molecular target: BIR2 domain of XIAP (Homo sapiens (Human), UniProt P98170, C202A/C213G)
Sequence (P98170 124-240 with tags or gaps C202A/C213G limits assumed): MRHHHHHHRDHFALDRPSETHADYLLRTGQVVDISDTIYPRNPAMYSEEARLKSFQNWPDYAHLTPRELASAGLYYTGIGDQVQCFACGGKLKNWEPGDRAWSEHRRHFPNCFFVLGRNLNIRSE
Assay: TR-FRET assay for BIR2 (inhibition of binding of XIAP BIR2 domain to SMAC-derived Peptide A)
Conditions: 6x His-tagged BIR2 domain (aa 124-240 of XIAP) 10 nM, Peptide A 20 nM, TR-FRET; read-out: IC50 BIR2
Counter-ions that a name gives are not always drawn.
readout.kind: log10(IC50) (log10 of the value in nM)

- molecule: "CN[C@@H](C)C(=O)N[C@H]1CN(C(=O)c2ccc(N)cc2)c2ccccc2N(Cc2c(OCCF)ccc3ccccc23)C1=O [Example 178, hydrochloride]"
  log10(IC50): 1.15
- molecule: "COc1ccc2cc(Br)ccc2c1CN1C(=O)[C@@H](NC(=O)[C@H](C)N)CN(C(=O)c2ccc(C(C)=O)cc2)c2ccccc21 [Example 39, hydrochloride]"
  log10(IC50): 1.28
- molecule: "CN[C@@H](C)C(=O)N[C@H]1CN(S(=O)(=O)N(C)C)c2ccccc2N(Cc2c(C)ccc3ccccc23)C1=O [Example 100, hydrochloride]"
  log10(IC50): 2.40
- molecule: "CN[C@@H](C)C(=O)N[C@H]1CN(C(=O)c2ccc(C(C)=O)cc2)c2ccccc2N(Cc2c(OC)ccc3ccccc23)C1=O [Example 69g]"
  log10(IC50): 1.04
- molecule: "CN[C@@H](C)C(=O)N[C@H]1CN(C(=O)c2ccc(F)cc2)c2cc(Cl)ccc2N(Cc2c(OC)ccc3cc(Br)ccc23)C1=O [Example 130, hydrochloride]"
  log10(IC50): 1.55
- molecule: "CN[C@@H](C)C(=O)N[C@H]1CN(C(=O)c2ccc(C(C)=O)cc2)c2ccccc2N(CC(=O)Nc2nc3ccccc3s2)C1=O [Example 109]"
  log10(IC50): 2.08
